Target: Mitogen-activated protein kinase 1 (Homo sapiens, UniProt P28482)
Sequence (P28482 whole entry): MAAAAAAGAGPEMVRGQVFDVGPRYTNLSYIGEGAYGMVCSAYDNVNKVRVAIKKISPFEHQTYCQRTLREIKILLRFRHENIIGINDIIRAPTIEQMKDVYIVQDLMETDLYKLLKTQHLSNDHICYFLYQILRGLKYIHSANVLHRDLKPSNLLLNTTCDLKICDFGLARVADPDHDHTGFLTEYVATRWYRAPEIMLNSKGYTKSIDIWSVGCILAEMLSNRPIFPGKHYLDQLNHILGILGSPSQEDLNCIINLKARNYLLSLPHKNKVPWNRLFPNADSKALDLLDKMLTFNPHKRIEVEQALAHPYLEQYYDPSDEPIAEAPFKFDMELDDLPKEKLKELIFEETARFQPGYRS
Test: Assay 1
pKi: −log10 of the molar value.
Kind request: treat 7 as inclusive, so pKi at 7 or higher is yes, anything lower is no.

Compound | Target Under Test | Answer Label
Cc1cnc(N)nc1-c1c[nH]c(C(=O)NCc2cc(F)cc(F)c2)c1 [erk000629] | Mitogen-activated protein kinase 1 (Homo sapiens, UniProt P28482) | no
Fc1cccc(-c2cnoc2-c2c[nH]c3ncc(-c4ccncc4)cc23)c1F [erk000712] | Mitogen-activated protein kinase 1 (Homo sapiens, UniProt P28482) | no

Decide: is the reported value of pKi for CCNc1ncc(C)c(-c2c[nH]c(C(=O)N[C@@H](CO)c3ccccc3F)c2)n1 [erk000486] equal to or greater than 7?
no

Decide: is the reported value of pKi for CONc1ncc(C)c(-c2c[nH]c(C(=O)N[C@H](CO)c3ccccc3)c2)n1 [erk000493] equal to or greater than 7?
yes

Decide: is the reported value of pKi for O=c1[nH][nH]c2cc(Nc3ccc([N+](=O)[O-])c(Nc4cc(C5CC5)[nH]n4)n3)ccc12 [erk000662] equal to or greater than 7?
yes

Decide: is the reported value of pKi for Cc1cnc(NCC(C)C)nc1-c1c[nH]c(C(=O)N[C@H](CO)c2cccc(Cl)c2)c1 [erk000525] equal to or greater than 7?
yes
